assay: folding enthalpy; higher = less favourable; fluorescence melt of hairpins on a sequencing array, two-state fit; settings: sodium 0.088 M
Quantity Kind: folding enthalpy (kcal/mol)
Report only the number, with the unit kcal/mol understood.

Sequence Content | Unit Info | folding enthalpy
GGCATCCGAAAGGACGCC (((.(((....))).))) | kcal/mol | -48.8

Prompt: Look up and report measured folding enthalpy for this entry: GATCATAGATATGATC ((((((....))))))
Completion: -33.6

Prompt: Please give the documented folding enthalpy of GCAGTCGGAAACGATTGC (((.(((....))).)))
Completion: -43.6

Prompt: In one line, give reported folding enthalpy of the entry GCGGAACGCCGC ((((....)))) .
Completion: -9.84

Prompt: Please report the measured folding enthalpy for GATCCTAACGAGGATC ((((((....))))))
Completion: -44.8

Prompt: Fill in folding enthalpy for record GCGCGCGAAAGCGCCCGC ((((((....)))..)))
Completion: -9.74

====

Entries annotated with measured folding enthalpy
assay: folding enthalpy; higher = less favourable; fluorescence melt of hairpins on a sequencing array, two-state fit; conditions: sodium 0.088 M
Please respond with the number in kcal/mol and leave the unit unwritten.

A selection of reference data follows.
Sequence Content | folding enthalpy (kcal/mol)
GACAAGCGAAAGCTAGTC (((.(((....))).))) | -23
GGAACGGGAAACTGTTCC (((((.(....).))))) | -42.4
GATCTGTTCACAGATC ((((((....)))))) | -35.1
GCGTGAGGAAACTTGCGC (((..((....))..))) | -30.9
GTCATCGAAAGATTAGAC ((((((....)))..))) | -14
GCGTCGCGAAAGCGTAGC ((..(((....)))..)) | -20.8

Prompt: Specify folding enthalpy for GAGTAGGGAAACCTATTC ((.((((....)))).)) and stop.
Completion: -25.5

Prompt: Please indicate folding enthalpy recorded for GGAATCGGAAACGATTCC (((((((....)))))))
Completion: -43.2

Prompt: Report folding enthalpy for GCTAAGCGAAAGCTCTGC ((..(((....)))..))
Completion: -15.8

Prompt: Respond only with folding enthalpy recorded for GCCGACCGAAAGGTGGGC (((.(((....))).)))
Completion: -34.4

Prompt: Report folding enthalpy for GCTAGCGAAAGCTAGAGC ((((((....)))..)))
Completion: -13.2

Prompt: Using the record for GATCCCTAACGGGATC ((((((....)))))) , state its measured folding enthalpy.
Completion: -39.7

Prompt: Consider the sequence GATCGGAGTACCGATC ((((((....)))))) . State its measured folding enthalpy.
Completion: -37.9

Prompt: Given the sequence GATCGTATGACGATC ((((((...)))))) , write its reported folding enthalpy.
Completion: -34

Prompt: Answer with reported folding enthalpy of GATCCCCGAAAGGGTATC (((.(((....))).)))
Completion: -21.1

Prompt: For the sequence GTGCATCGAAAGATACAC (((.(((....))).))) , give its reported folding enthalpy.
Completion: -35.2

====

test: folding enthalpy; higher = less favourable; fluorescence melt of hairpins on a sequencing array, two-state fit; settings: sodium 0.088 M
Decision: folding enthalpy >= -20 kcal/mol yields yes (1), all other cases yield no (0).

Prompt: folding enthalpy >= -20 kcal/mol for GATCGTCGACACGATC ((((((....)))))) ?
Completion: no (0)

Prompt: Record GAATGGCGAAAGCCTTTC (((.(((....))).))) ; criterion: folding enthalpy no lower than -20 kcal/mol. Met?
Completion: no (0)

Prompt: Is it the case that GAAATAGGAAACTGTTTC ((((.((....)).)))) has folding enthalpy reaching or exceeding -20 kcal/mol?
Completion: no (0)

Prompt: Determine whether measured folding enthalpy meets or exceeds -20 kcal/mol for GTAACAGGAAACTGTTGC (.(((((....))))).)
Completion: no (0)

Prompt: Evaluate CGTCTCGGAAACGATACG (((.(((....))).))) : folding enthalpy at minimum -20 kcal/mol?
Completion: no (0)

Prompt: For this sequence, is measured folding enthalpy -20 kcal/mol or higher? GATCGCCACTGCGATC ((((((....))))))
Completion: no (0)

Prompt: Test whether the sequence GTGCCGGGAAACCGGTAC ((.((((....)))).)) records folding enthalpy of -20 kcal/mol or higher.
Completion: no (0)

Prompt: Check this sequence for folding enthalpy at or above -20 kcal/mol: GCTATCCCGAAAGGGAGC (((..(((....))))))
Completion: yes (1)

Prompt: Hi team, for GCGGAGTTCCGC ((((....)))) , is the recorded folding enthalpy at or above -20 kcal/mol?
Completion: no (0)

Prompt: Hello, I need to know if CTTAGGAAACTAAG (((((....))))) has measured folding enthalpy not below -20 kcal/mol. Thanks!
Completion: yes (1)

Prompt: Decide: is the reported value of folding enthalpy for TAAGCGAAAGCTTA (((((....))))) equal to or greater than -20 kcal/mol?
Completion: yes (1)
